Molecular target: T1, mutant human CD20 #3 (A170S, P172S) (human, UniProt P11836 1-297)
T1 construct: Stably expressed on MG87 cells
T1 chain: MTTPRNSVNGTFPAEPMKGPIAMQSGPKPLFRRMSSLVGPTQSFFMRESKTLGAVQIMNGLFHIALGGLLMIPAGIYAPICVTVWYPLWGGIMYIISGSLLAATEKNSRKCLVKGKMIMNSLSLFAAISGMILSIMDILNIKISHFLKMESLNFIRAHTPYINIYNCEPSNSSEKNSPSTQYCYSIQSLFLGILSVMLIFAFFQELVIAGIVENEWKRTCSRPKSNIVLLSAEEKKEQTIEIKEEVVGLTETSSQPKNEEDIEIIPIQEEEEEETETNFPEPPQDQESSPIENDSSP
Experiment: FACS, mutant-hCD20 MG87 cells; 100%=best antibody
Form field: Percent of Binding to Mutant Human CD20 (one value per entry).
recorded-endpoint: Percent of Binding to Mutant Human CD20 (%)

INSERT INTO assay_data (binder, observed_measurement) VALUES
  ('2B7-7 (antibody, V domains shown, Fully human IgG, constant region not specified; also called 2B7-7N) VH: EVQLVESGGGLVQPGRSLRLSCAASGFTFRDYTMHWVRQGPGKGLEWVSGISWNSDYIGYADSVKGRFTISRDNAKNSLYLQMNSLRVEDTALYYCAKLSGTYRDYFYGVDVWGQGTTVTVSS VL: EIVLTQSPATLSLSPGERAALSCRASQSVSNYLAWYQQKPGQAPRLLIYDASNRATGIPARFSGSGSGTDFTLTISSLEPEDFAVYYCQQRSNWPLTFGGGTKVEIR', 87),
  ('9D4-7 (antibody, V domains shown, Fully human IgG, constant region not specified; also called 9D4-7N) VH: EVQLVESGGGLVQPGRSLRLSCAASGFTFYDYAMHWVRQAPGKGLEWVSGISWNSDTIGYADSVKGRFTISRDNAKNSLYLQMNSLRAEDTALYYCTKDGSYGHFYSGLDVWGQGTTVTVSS VL: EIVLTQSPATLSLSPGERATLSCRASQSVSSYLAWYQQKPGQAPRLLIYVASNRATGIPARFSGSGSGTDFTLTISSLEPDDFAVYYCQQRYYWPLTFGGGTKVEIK', 70),
  ('2F2 (antibody, V domains shown) VH: EVQLVESGGGLVQPGRSLRLSCAASGFTFNDYAMHWVRQAPGKGLEWVSTISWNSGSIGYADSVKGRFTISRDNAKKSLYLQMNSLRAEDTALYYCAKDIQYGNYYYGMDVWGQGTTVTVSS VL: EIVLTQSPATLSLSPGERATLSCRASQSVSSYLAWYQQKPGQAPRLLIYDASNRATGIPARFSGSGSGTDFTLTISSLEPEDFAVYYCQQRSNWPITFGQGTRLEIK', 70),
  ('3H7-6 (antibody, V domains shown, Fully human IgG, constant region not specified; also called 3H7-6N) VH: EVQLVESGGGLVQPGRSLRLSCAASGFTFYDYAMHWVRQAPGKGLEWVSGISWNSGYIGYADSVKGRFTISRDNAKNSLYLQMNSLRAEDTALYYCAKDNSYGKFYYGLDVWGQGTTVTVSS VL: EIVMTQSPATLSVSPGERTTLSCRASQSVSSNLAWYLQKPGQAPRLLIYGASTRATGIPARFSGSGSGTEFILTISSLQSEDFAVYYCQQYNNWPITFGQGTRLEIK', 43),
  ('10E3-17 (antibody, V domains shown, Fully human IgG, constant region not specified; also called 10E3-17N) VH: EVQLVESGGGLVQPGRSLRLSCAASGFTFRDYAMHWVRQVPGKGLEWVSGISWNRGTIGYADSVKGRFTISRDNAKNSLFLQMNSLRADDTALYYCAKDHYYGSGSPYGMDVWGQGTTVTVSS VL: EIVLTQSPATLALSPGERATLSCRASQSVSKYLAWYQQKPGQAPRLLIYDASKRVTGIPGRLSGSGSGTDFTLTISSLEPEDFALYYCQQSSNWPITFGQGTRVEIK', 6);
